Entries and their IC50 values follow.
molecular target: Steroid 17-alpha-hydroxylase/17,20 lyase (Homo sapiens, UniProt P05093); test: Inhibition of CYP17 in human testicular microsomes using 17alpha-hydroxypregnenolone as substrate assessed as decrease in DHEA levels at 1 nM after 90 mins by ELISA relative to control; design: species or system Testis
Sequence (P05093 whole entry): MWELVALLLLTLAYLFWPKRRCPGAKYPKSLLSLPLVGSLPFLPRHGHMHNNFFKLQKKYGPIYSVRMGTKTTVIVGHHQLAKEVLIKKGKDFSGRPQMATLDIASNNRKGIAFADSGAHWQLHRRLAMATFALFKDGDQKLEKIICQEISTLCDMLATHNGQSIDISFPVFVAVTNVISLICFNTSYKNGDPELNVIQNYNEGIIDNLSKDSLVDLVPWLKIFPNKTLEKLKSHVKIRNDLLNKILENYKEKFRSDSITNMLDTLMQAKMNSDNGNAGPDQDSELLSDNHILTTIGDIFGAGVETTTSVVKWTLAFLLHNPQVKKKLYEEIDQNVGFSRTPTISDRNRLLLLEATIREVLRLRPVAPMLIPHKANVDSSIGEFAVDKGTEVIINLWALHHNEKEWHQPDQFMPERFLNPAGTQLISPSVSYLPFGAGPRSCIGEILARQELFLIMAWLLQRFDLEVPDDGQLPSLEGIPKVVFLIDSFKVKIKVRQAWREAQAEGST

Examples with answers:
C[C@]12CC[C@H]3[C@@H](C=CC4=C(O)C(=O)CC[C@@]43C)C1=CC=C2c1cccnc1	> 100 nM
C[C@]12CC[C@H]3[C@@H](CC4(CC4)C4=CC(=O)CC[C@@]43C)C1=CC=C2c1cncc(F)c1	10 to 100 nM
CC1C[C@@H]2[C@H](CC[C@]3(C)C(c4cccnc4)=CC[C@@H]23)[C@@]2(C)CC/C(=N\O)C=C12 (some centres undefined)	> 100 nM

Field IC50 (entry CC1CC2C3=CC=C(c4cncc(F)c4)[C@@]3(C)CC[C@@H]2[C@@]2(C)CCN(C)C(=O)C=C12 (single isomer, unassigned) ) reads > 100 nM
